target: CRF1R; assay: cell-based or functional assay
Collected CRF1R EC50 values appear next to each entry.
value.kind: CRF1R EC50 (µM)

>>> reported_result("ZGPPISIDLPIFLLRKMIEIEKQEKEKQQAANNALLLATI (C-terminal amide) [SEQ ID NO 298]")
1
>>> reported_result("ZGPPISIDLPLQLLEKMIEIEKQEKEKQQAANNALLLATI (not fully specified; C-terminal amide) [SEQ ID NO 249]")
1
>>> reported_result("ZGPPISIDLPYALLRKMIEIEKQEKEKQQAANNRLLLDTI (C-terminal amide) [SEQ ID NO 309]")
0.107
